The entries below come with measured ELISA OD450 values attached.
Molecular target: T1, recombinant human ROR1 extracellular domain protein (human, UniProt Q01973 30-406)
T1 construct: extracellular domain; Analyte in solution in the Octet assay; also called human ROR1 ECD
T1 sequence (Q01973 30-406): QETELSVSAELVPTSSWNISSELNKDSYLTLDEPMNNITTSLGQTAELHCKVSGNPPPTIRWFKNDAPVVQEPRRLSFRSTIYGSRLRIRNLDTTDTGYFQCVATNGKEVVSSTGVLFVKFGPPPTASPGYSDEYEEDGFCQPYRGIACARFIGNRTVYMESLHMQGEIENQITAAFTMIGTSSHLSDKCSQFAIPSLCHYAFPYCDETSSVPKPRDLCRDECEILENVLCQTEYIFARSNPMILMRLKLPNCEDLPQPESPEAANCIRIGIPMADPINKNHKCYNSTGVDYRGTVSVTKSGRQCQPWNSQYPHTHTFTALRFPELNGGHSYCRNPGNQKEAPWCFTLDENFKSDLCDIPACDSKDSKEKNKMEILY
Test: ELISA, direct coat; BCC supernatant
Quick note: give the figure in OD450, leave out the unit.

binder	ELISA OD450, OD450
323H7 (antibody, V domains shown, chimeric counterpart m3; also called rabbit IgG of BCC well 323H7) VH: QEQLKESGGGLVTPGGTLTLTCTASGFTISRYHMTWVRQAPGKGLEWIGHIYVNNDDTDYASWAKGRFTISKTSTTVDLKITSPTTEDTATYFCARLDVGGGGAYIGDIWGQGTLVTVSS VL: QAVVTQTPSSVSAAVGGTVTISCQSSQSVYNNNDLAWYQQKPGQPPKLLIYYASTLASGVSSRFKGSGSGTQFTLAISDLECDDSATYYCAGGYDTDGLDTFAFGGGTEVEVK	1.82
323D10 (antibody, V domains shown, chimeric counterpart m5; also called rabbit IgG of BCC well 323D10) VH: QSVEESGGRLVTPGTPLTLTCTVSGFSLSRNAMNWVRQAPGKGLEYIGYISTSGTTFYANWVKGRFTISKTSTTVDLKMTSLTTEDTATYFCARDYNYAMDIWGQGTLVTVSS VL: AIDLTQTPASVEAAVGGTITINCQASESISSWLAWYQQKPGQRPKLLIYETSKLASGVPPRFSGSGSGTQFTLTISGVQCDDAATYYCQSYYRINNIGYDNAFGGGTEVEFK	2.32
338H4 (antibody, V domains shown, chimeric counterpart m8; also called rabbit IgG of BCC well 338H4) VH: QSVEESGGRLVTPGTPLTLTCTVSGFSLSSYAMSWVRQAPGRGLEWIGIIYASGSTYYASWAKGRFTISKTSTTVDLKITSPTTEDTATYFCARIYDGMDLWGPGTLVTVSS VL: DIVMTQTPASVSAAVGGTVTINCQASQNIYSYLSWYQQKPGQPPKRLIYLASTLASGVPSRFKSSGSGTEYTLTISDLECDDAATYYCQSNYNGNYGFGGGTEVEVK	4
324C7 (antibody, V domains shown, chimeric counterpart m4; also called rabbit IgG of BCC well 324C7) VH: QSVEESGGRLVTPGTPLTLTCTVSGFSLSGAGVSWVRQAPGKGLEWIGYIDSGATTYYASWAKGRFTISKASTTVDLKIASPTTEDTATYFCARGYYGMDPWGQGTLVTVSS VL: DIVMTQTPASVEVAVGGTVTIKCQASQNIGSDLAWYQQKPGQPPKLLIYTTSNLASGVPSRFKGSGSGTGFTLTISDLECADAASYCCQGGYFSGRNIYGNAFGGGTEVVVK	2.74

Proceed to the following item.
Req: For the binder shown here, 330F11 (antibody, V domains shown, chimeric counterpart m9; also called rabbit IgG of BCC well 330F11) VH: QSVEESGGRLVTPGTPLTLTCTVSGFSLNNYWMSWVRQAPGEGLEWIGTISSGAYTWFATWATGRFTISKTSTTVDLSITSPTTEDTATYFCARYSSTTDWTYFNIWGPGTLVTVSS VL: DVVMTQTPASVEAAVGGTVTIKCQASQSINNYLAWYQQKPGQPPKLLIYRASTLESGVPSRFKGSGSGTQFTLTISDLECADAATYYCQSYNGVGRTAFGGGTEVEFK , give the reported ELISA OD450.
Resp: 0.98
